# study system: CYP1A2 (Homo sapiens)
# Sequence (P05177 whole entry): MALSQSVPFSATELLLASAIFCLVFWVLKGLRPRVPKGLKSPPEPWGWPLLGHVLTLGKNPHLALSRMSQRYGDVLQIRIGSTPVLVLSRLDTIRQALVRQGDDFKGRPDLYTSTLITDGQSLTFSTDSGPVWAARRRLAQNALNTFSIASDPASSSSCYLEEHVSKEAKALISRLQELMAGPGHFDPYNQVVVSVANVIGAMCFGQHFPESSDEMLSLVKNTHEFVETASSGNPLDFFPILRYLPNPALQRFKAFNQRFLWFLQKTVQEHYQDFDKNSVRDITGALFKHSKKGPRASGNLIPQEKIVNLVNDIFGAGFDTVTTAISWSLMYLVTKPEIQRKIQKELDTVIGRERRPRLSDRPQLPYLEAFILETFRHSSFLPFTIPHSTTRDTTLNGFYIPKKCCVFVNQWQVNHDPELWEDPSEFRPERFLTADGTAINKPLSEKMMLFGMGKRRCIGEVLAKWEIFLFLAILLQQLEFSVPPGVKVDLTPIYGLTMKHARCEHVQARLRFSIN
# experiment description: in vitro
# condition info: both, hepatocytes
endpoint: activity at 60 min, 1 μM

According to the records, this compound Cc1nc2c([nH]1)c(=O)n(C)c(=O)n2Cc1ccco1 displays activity at 60 min, 1 μM of 27.9%

----------
# study system: CYP2C9 (Homo sapiens)
# Sequence (P11712 whole entry): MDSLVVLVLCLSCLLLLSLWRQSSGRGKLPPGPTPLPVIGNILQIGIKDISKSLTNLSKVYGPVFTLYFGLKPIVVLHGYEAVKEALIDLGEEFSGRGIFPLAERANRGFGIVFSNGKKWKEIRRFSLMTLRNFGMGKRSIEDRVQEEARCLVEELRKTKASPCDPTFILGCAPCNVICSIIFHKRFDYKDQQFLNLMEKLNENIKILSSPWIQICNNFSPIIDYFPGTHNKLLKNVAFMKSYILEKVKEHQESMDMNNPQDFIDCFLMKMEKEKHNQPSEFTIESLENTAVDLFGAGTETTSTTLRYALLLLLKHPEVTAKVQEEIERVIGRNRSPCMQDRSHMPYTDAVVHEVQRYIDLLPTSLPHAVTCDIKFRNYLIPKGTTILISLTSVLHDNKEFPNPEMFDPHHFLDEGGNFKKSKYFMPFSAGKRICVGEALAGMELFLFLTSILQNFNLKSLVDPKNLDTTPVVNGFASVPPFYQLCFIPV
# experiment description: in vitro
# condition info: both, hepatocytes
endpoint: activity at 60 min, 10 μM (%)
Return type: number; implicit unit %.

Tested on CYP2C9 (Homo sapiens), the item Nc1ccc(S(=O)(=O)Nc2ccnn2-c2ccccc2)cc1 [Sulfaphenazole, sulfaphenazole] showed activity at 60 min, 10 μM equal to 5.02
